test system: COR-L23; assay: relative viability (nuclei count vs DMSO), 5 days (fraction); higher = more cells survive; settings: first compound 0.6325 µM
value-kind: relative viability
# respond with the number and nothing more

IN: Which measured relative viability value corresponds to CN1CCN(CCOc2cc(OC3CCOCC3)c3c(Nc4c(Cl)ccc5c4OCO5)ncnc3c2)CC1 [Saracatinib] + O=C(c1cc(Cc2n[nH]c(=O)c3ccccc23)ccc1F)N1CCN(C(=O)C2CC2)CC1 [Olaparib] (partner 8 µM) ?
OUT: 0.346

IN: Which measured relative viability value corresponds to CN1CCN(CCOc2cc(OC3CCOCC3)c3c(Nc4c(Cl)ccc5c4OCO5)ncnc3c2)CC1 [Saracatinib] + CC(=O)Nc1cccc(-n2c(=O)n(C3CC3)c(=O)c3c(Nc4ccc(I)cc4F)n(C)c(=O)c(C)c32)c1 [Trametinib] (partner 0.02 µM) ?
OUT: 0.574

----------
test system: NCI-H1793; test: relative viability (nuclei count vs DMSO), 5 days (fraction); higher = more cells survive; conditions: first compound 0.2 µM
List of relative viability values.
# respond with the number and nothing more

IN: Which measured relative viability value corresponds to CCNC(=O)c1noc(-c2cc(C(C)C)c(O)cc2O)c1-c1ccc(CN2CCOCC2)cc1 [Luminespib] + CC(=O)c1c(C)c2cnc(Nc3ccc(N4CCNCC4)cn3)nc2n(C2CCCC2)c1=O [Palbociclib] (partner 0.5 µM) ?
OUT: 0.165

IN: Which measured relative viability value corresponds to CCNC(=O)c1noc(-c2cc(C(C)C)c(O)cc2O)c1-c1ccc(CN2CCOCC2)cc1 [Luminespib] + COc1cccc2cc(-c3nc([C@H]4CC[C@H](C(=O)O)CC4)n4ncnc(N)c34)[nH]c12 [OSI-027] (partner 0.5 µM) ?
OUT: 0.112

IN: Which measured relative viability value corresponds to Cc1csc(=NC2CCCCC2)n1/N=C/c1ccc(O)c(O)c1O [MIM1] + Nc1nc2[nH]cc(CCc3ccc(C(=O)N[C@@H](CCC(=O)O)C(=O)O)cc3)c2c(=O)[nH]1 [Pemetrexed] (partner 0.2 µM) ?
OUT: 0.937

IN: Which measured relative viability value corresponds to CCNC(=O)c1noc(-c2cc(C(C)C)c(O)cc2O)c1-c1ccc(CN2CCOCC2)cc1 [Luminespib] + N=C(N)NC(=N)NCCc1ccccc1 [Phenformin] (partner 250 µM) ?
OUT: 0.138

----------
system: NCI-H661; assay: relative viability (nuclei count vs DMSO), 5 days (fraction); higher = more cells survive; conditions: first compound 0.02 µM
value-kind: relative viability
# respond with the number and nothing more

compound	relative viability
CCNC(=O)c1noc(-c2cc(C(C)C)c(O)cc2O)c1-c1ccc(CN2CCOCC2)cc1 [Luminespib] + N=C(N)NC(=N)NCCc1ccccc1 [Phenformin] (partner 250 µM)	0.27
CCNC(=O)c1noc(-c2cc(C(C)C)c(O)cc2O)c1-c1ccc(CN2CCOCC2)cc1 [Luminespib] + Nc1ncn([C@H]2C[C@H](O)[C@@H](CO)O2)c(=O)n1 [Decitabine] (partner 2 µM)	0.454

IN: Which measured relative viability value corresponds to CN1CCN(CCOc2cc(OC3CCOCC3)c3c(Nc4c(Cl)ccc5c4OCO5)ncnc3c2)CC1 [Saracatinib] + Nc1ncn([C@H]2C[C@H](O)[C@@H](CO)O2)c(=O)n1 [Decitabine] (partner 2 µM) ?
OUT: 0.563

IN: Which measured relative viability value corresponds to CN1CCN(CCOc2cc(OC3CCOCC3)c3c(Nc4c(Cl)ccc5c4OCO5)ncnc3c2)CC1 [Saracatinib] + CS(=O)(=O)N1CCN(Cc2cc3nc(-c4cccc5[nH]ncc45)nc(N4CCOCC4)c3s2)CC1 [Pictilisib] (partner 1 µM) ?
OUT: 0.452

IN: Which measured relative viability value corresponds to CCNC(=O)c1noc(-c2cc(C(C)C)c(O)cc2O)c1-c1ccc(CN2CCOCC2)cc1 [Luminespib] + C[C@@H](Oc1cc(-c2cnn(C3CCNCC3)c2)cnc1N)c1c(Cl)ccc(F)c1Cl [Crizotinib] (partner 1 µM) ?
OUT: 1.05

IN: Which measured relative viability value corresponds to CCNC(=O)c1noc(-c2cc(C(C)C)c(O)cc2O)c1-c1ccc(CN2CCOCC2)cc1 [Luminespib] + O=C(CCCCCCC(=O)Nc1ccccc1)NO [Vorinostat] (partner 1 µM) ?
OUT: 0.759
